Target: C-Rel subunit;p52 subunit (Homo sapiens;Homo sapiens, UniProt Q04864;Q00653 1-285;4-332)
Sequence 1: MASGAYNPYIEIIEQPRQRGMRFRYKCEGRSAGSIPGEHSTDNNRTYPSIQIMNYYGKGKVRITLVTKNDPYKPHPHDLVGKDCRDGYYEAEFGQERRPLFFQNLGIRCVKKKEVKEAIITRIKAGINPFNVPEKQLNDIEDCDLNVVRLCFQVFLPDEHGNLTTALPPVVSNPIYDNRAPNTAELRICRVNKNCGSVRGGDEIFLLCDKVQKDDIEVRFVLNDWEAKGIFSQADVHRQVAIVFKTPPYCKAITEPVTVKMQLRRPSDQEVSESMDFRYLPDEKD
Sequence 2: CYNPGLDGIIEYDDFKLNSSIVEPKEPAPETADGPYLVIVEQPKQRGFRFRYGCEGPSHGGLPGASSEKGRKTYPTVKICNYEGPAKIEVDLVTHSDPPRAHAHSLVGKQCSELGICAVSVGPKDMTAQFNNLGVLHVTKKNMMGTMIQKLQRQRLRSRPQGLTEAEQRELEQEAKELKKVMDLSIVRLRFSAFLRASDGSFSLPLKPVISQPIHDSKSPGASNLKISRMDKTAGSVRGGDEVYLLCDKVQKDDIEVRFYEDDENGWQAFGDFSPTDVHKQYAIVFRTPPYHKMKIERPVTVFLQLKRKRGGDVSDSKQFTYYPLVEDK
Assay: protein binding microarray; high values mean tight binding
Details: dsDNA, one strand shown
OBSERVATION_TYPE: binding signal

Sample records with binding signal:
[
  {
    "MACROMOLECULE_SEQUENCE": "CAGGGGACCCT",
    "TESTED_ON": "C-Rel subunit;p52 subunit (Homo sapiens;Homo sapiens, UniProt Q04864;Q00653 1-285;4-332)",
    "binding signal": "-0.0494 z-score"
  },
  {
    "MACROMOLECULE_SEQUENCE": "AGGAAACTCCT",
    "TESTED_ON": "C-Rel subunit;p52 subunit (Homo sapiens;Homo sapiens, UniProt Q04864;Q00653 1-285;4-332)",
    "binding signal": "-0.211 z-score"
  },
  {
    "MACROMOLECULE_SEQUENCE": "AAAAGCGTCCC",
    "TESTED_ON": "C-Rel subunit;p52 subunit (Homo sapiens;Homo sapiens, UniProt Q04864;Q00653 1-285;4-332)",
    "binding signal": "0.0784 z-score"
  },
  {
    "MACROMOLECULE_SEQUENCE": "GGAGAAACCCT",
    "TESTED_ON": "C-Rel subunit;p52 subunit (Homo sapiens;Homo sapiens, UniProt Q04864;Q00653 1-285;4-332)",
    "binding signal": "0.637 z-score"
  },
  {
    "MACROMOLECULE_SEQUENCE": "CAAAAATCCCC",
    "TESTED_ON": "C-Rel subunit;p52 subunit (Homo sapiens;Homo sapiens, UniProt Q04864;Q00653 1-285;4-332)",
    "binding signal": "2.55 z-score"
  },
  {
    "MACROMOLECULE_SEQUENCE": "GGATGGCTCCT",
    "TESTED_ON": "C-Rel subunit;p52 subunit (Homo sapiens;Homo sapiens, UniProt Q04864;Q00653 1-285;4-332)",
    "binding signal": "-0.938 z-score"
  },
  {
    "MACROMOLECULE_SEQUENCE": "GGATGACTCCC",
    "TESTED_ON": "C-Rel subunit;p52 subunit (Homo sapiens;Homo sapiens, UniProt Q04864;Q00653 1-285;4-332)",
    "binding signal": "-0.692 z-score"
  },
  {
    "MACROMOLECULE_SEQUENCE": "CAATATTTCCC",
    "TESTED_ON": "C-Rel subunit;p52 subunit (Homo sapiens;Homo sapiens, UniProt Q04864;Q00653 1-285;4-332)",
    "binding signal": "1.08 z-score"
  }
]

Note: attention shifts to another entry.
sequence `GAAATCGCCCC` , binding signal observed: 0.389 z-score

---

Target: p52p52 homodimer (Homo sapiens, UniProt Q00653 4-332)
Sequence: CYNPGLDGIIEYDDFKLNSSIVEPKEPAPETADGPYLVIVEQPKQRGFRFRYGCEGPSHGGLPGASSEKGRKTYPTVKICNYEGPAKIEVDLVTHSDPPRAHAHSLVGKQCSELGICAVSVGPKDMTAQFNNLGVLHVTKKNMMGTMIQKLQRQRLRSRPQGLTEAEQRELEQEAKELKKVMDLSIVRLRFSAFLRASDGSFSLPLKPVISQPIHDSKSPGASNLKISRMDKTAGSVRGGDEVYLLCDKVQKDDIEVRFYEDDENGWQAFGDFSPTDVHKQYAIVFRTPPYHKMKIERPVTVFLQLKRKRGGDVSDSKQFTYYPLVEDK
Test: protein binding microarray; high values mean tight binding
Settings: dsDNA, one strand shown
Measured binding signal accompanies every entry in the list below.

[
  {
    "MACROMOLECULE_SEQUENCE": "GAATAGACCCT",
    "OBSERVATION_TYPE": "binding signal",
    "RESULT": "-0.346 z-score"
  },
  {
    "MACROMOLECULE_SEQUENCE": "GGATGACTCCC",
    "OBSERVATION_TYPE": "binding signal",
    "RESULT": "-0.473 z-score"
  },
  {
    "MACROMOLECULE_SEQUENCE": "GGGTTCGTCCC",
    "OBSERVATION_TYPE": "binding signal",
    "RESULT": "1.59 z-score"
  },
  {
    "MACROMOLECULE_SEQUENCE": "AAGGTCCTCCT",
    "OBSERVATION_TYPE": "binding signal",
    "RESULT": "-0.49 z-score"
  },
  {
    "MACROMOLECULE_SEQUENCE": "CAAAGTCCCCT",
    "OBSERVATION_TYPE": "binding signal",
    "RESULT": "1.68 z-score"
  },
  {
    "MACROMOLECULE_SEQUENCE": "AAATAATTCCT",
    "OBSERVATION_TYPE": "binding signal",
    "RESULT": "-0.44 z-score"
  }
]

The sequence `AAAGGTCCCCT` showed binding signal equal to 0.848 z-score

Record `GAAGGTCTCCT` . Reported binding signal: -0.69 z-score

# binding signal of `CGGATGGCCCT` = -0.625 z-score

For reference, reported binding signal for `GAGGGTTCCCT` stands at -0.121 z-score

---

# binding signal per record follows
Target: RELB subunit;p52 subunit (Homo sapiens;Homo sapiens, UniProt Q01201;Q00653 120-401;4-332)
Sequence 1: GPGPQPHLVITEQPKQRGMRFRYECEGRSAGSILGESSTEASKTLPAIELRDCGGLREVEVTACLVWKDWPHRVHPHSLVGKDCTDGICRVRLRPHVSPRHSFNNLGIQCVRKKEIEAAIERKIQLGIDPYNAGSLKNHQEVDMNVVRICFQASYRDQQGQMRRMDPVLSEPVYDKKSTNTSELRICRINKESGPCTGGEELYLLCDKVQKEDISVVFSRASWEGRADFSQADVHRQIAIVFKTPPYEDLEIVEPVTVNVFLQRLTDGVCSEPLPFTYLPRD
Sequence 2: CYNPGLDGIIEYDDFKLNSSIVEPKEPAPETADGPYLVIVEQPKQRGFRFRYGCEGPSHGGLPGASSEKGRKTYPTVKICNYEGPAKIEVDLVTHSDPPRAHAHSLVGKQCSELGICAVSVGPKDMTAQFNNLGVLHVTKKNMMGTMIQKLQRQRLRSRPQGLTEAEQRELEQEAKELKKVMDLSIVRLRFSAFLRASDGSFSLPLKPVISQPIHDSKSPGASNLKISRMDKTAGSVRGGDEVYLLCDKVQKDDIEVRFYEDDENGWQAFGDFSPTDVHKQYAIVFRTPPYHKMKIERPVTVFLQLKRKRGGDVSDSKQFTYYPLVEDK
Assay: protein binding microarray; high values mean tight binding
Settings: dsDNA, one strand shown
Value expressed in z-score; do not type the unit.

Here is how some sequences turned out for binding signal.
[
  {
    "MACROMOLECULE_SEQUENCE": "CGGAAAACCCC",
    "OUTPUT_UNIT": "z-score",
    "RESULT_NUMBER": 2.18
  },
  {
    "MACROMOLECULE_SEQUENCE": "GGGAATCTCCT",
    "OUTPUT_UNIT": "z-score",
    "RESULT_NUMBER": 0.827
  },
  {
    "MACROMOLECULE_SEQUENCE": "CAAATCTCCCT",
    "OUTPUT_UNIT": "z-score",
    "RESULT_NUMBER": 1.4
  },
  {
    "MACROMOLECULE_SEQUENCE": "GAATTGTCCCC",
    "OUTPUT_UNIT": "z-score",
    "RESULT_NUMBER": 1.61
  },
  {
    "MACROMOLECULE_SEQUENCE": "GGAGTTTTCCT",
    "OUTPUT_UNIT": "z-score",
    "RESULT_NUMBER": -0.581
  },
  {
    "MACROMOLECULE_SEQUENCE": "GAGTTCTTCCT",
    "OUTPUT_UNIT": "z-score",
    "RESULT_NUMBER": -0.72
  },
  {
    "MACROMOLECULE_SEQUENCE": "CAGTGTTTCCT",
    "OUTPUT_UNIT": "z-score",
    "RESULT_NUMBER": -0.677
  },
  {
    "MACROMOLECULE_SEQUENCE": "CGGTTTACCCC",
    "OUTPUT_UNIT": "z-score",
    "RESULT_NUMBER": 1.16
  },
  {
    "MACROMOLECULE_SEQUENCE": "AGGGAGTTCCT",
    "OUTPUT_UNIT": "z-score",
    "RESULT_NUMBER": 0.659
  },
  {
    "MACROMOLECULE_SEQUENCE": "AGAAAATCCCT",
    "OUTPUT_UNIT": "z-score",
    "RESULT_NUMBER": 1.61
  }
]

Data point: `CAAATTCCCCC` ; binding signal = 2.35

Kindly note the recorded binding signal for `CAATGCACCCT` , which is -0.639

Consider `CAGGGCCTCCC` . Its measured binding signal is -0.746

Data point: `CGGTACTCCCT` ; binding signal = 0.415

Per the record, `AAGTATTCCCT` has binding signal of 0.852

Record summary for `AGATGAACCCC` : reported binding signal = -0.0728

Reference for the values: paper PMC3218832
